Provenance of the data: ChEMBL document CHEMBL5042479

Form: system (Vasopressin V1a receptor (Homo sapiens)), quantity (pKi), values below.
Answers are plain numbers, as −log10 of the molar value.

Solved entries:
Cc1cccc2c1-n1c(nnc1[C@H]1CC[C@H](Oc3ccccn3)CC1)C[C@H](O)C2 (atropisomer aR)
7.96
Cc1ccc2c(c1)CC(O)Cc1nnc([C@H]3CC[C@H](Oc4ccccn4)CC3)n1-2 (some centres undefined)
9.40
Cc1cccc2c1-n1c(nnc1[C@H]1CC[C@H](Oc3ccccn3)CC1)C[C@@H](O)C2 (atropisomer aR)
8.20

Q: Form field - read-out: pKi; system: Vasopressin V1a receptor (Homo sapiens); submitted item: OC1Cc2c(Cl)cccc2-n2c(nnc2[C@H]2CC[C@H](Oc3ccccn3)CC2)C1 (some centres undefined)
Sequence (P37288 whole entry): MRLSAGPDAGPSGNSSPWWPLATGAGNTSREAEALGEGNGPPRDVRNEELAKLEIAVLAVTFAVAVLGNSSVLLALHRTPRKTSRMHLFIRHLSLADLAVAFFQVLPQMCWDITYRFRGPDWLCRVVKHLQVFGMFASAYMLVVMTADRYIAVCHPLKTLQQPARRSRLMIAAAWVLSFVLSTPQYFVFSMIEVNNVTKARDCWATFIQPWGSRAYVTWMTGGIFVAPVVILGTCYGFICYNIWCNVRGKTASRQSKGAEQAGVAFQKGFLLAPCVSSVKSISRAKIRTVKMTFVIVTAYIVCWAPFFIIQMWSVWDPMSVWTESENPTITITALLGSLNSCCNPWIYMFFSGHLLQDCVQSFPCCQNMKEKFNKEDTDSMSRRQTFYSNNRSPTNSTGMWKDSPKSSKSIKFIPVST
A: 7.92

---

Could you please report measured microsomal CLint for the items listed next?
# assay.details: Intrinsic clearance in human liver microsomes in presence of reduced NADPH
Answers are plain numbers, in µL/min/mg.

Solved entries:
O[C@H]1Cc2cc(Cl)ccc2-n2c(nnc2[C@H]2CC[C@H](Oc3ccccn3)CC2)C1
4.1
OC1Cc2cc(Cl)ccc2-n2c(nnc2[C@H]2CC[C@H](Oc3ccccn3)CC2)C1 (stereo partly drawn)
0.4

Could you now look at the following molecule, please?
Q: # microsomal CLint lookup, item `O[C@@H]1Cc2cc(Cl)ccc2-n2c(nnc2[C@H]2CC[C@H](Oc3ccccn3)CC2)C1`
A: 3.2

---

# experimental.target: Vasopressin V1a receptor (Homo sapiens)
# assay.details: Inhibition of human V1A receptor expressed in human 1321N1 cells assessed as calcium mobilization by fluorescent plate reader
readout: IC50 (µM)
Numbers only, in µM.

Cc1ccc2c(c1)-n1c(nnc1[C@H]1CC[C@H](Oc3ccccn3)CC1)CC(O)C2 (some centres not stated)
0.39

Could you now look at the following compound, please?
Q: # IC50 lookup, item Cc1ccc2c(c1)CC(O)Cc1nnc([C@H]3CC[C@H](Oc4ccccn4)CC3)n1-2 (some centres not stated)
A: 0.0019

---

# assay.details: Intrinsic clearance in mouse liver microsomes in presence of reduced NADPH
readout: microsomal CLint (µL/min/mg)
Give bare numbers, in µL/min/mg.

For every listed record, write down its microsomal CLint.
1. OC1Cc2cc(Cl)ccc2-n2c(nnc2[C@H]2CC[C@H](Oc3ccccn3)CC2)C1 (stereo partly drawn)
2. O[C@H]1Cc2cc(Cl)ccc2-n2c(nnc2[C@H]2CC[C@H](Oc3ccccn3)CC2)C1
3. O[C@@H]1Cc2cc(Cl)ccc2-n2c(nnc2[C@H]2CC[C@H](Oc3ccccn3)CC2)C1

A:
1. 6.3
2. 6.7
3. 5.1

---

# assay.details: Apparent permeability across apical to basolateral side in mouse Caco-2 cells
# details: human
Could you please report measured Papp A→B for the items listed next?
One number for each entry, in ×10⁻⁶ cm/s.

Solved entries:
O[C@H]1Cc2cc(Cl)ccc2-n2c(nnc2[C@H]2CC[C@H](Oc3ccccn3)CC2)C1
20.5
OC1Cc2cc(Cl)ccc2-n2c(nnc2[C@H]2CC[C@H](Oc3ccccn3)CC2)C1 (stereo partly drawn)
20.3

Could you now look at the following molecule, please?
Q: # Papp A→B lookup, item `O[C@@H]1Cc2cc(Cl)ccc2-n2c(nnc2[C@H]2CC[C@H](Oc3ccccn3)CC2)C1`
A: 22.5

---

# experimental.target: Vasopressin V2 receptor (Homo sapiens, UniProt P30518)
# Sequence (P30518 whole entry): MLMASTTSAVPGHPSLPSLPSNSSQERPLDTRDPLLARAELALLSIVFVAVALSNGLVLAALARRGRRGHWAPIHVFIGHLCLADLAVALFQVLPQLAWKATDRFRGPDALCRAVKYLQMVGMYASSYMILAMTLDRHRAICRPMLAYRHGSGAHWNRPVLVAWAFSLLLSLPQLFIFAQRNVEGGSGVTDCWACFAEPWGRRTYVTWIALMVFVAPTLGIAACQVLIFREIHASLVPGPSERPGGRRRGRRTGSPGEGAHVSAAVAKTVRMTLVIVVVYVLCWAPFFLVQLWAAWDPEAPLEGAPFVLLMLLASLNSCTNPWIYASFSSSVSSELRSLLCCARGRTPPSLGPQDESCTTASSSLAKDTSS
# assay.details: Displacement of [3H]-labelled arginine-vasopressin from human V2 receptor expressed in human 1321N1 cell membranes at 1 uM incubated for 60 mins by radioligand binding assay
# details: Membrane
readout: inhibition (%)
Answers are plain numbers, in %.

Solved entries:
Cc1cccc2c1-n1c(nnc1[C@H]1CC[C@H](Oc3ccccn3)CC1)C[C@H](O)C2 (atropisomer aR)
-3
Cc1cccc2c1-n1c(nnc1[C@H]1CC[C@H](Oc3ccccn3)CC1)C[C@H](O)C2 (atropisomer aS)
-5
CN(C)CCn1cc(C(=O)N2CCC3(CC2)OCc2ccccc23)c2ccc(Cl)cc21
-6
Cc1ccc2c(c1)-n1c(nnc1[C@H]1CC[C@H](Oc3ccccn3)CC1)CC(O)C2 (stereo partly drawn)
3
Cc1cccc2c1-n1c(nnc1[C@H]1CC[C@H](Oc3ccccn3)CC1)C[C@@H](O)C2 (atropisomer aS)
0
Cc1cccc2c1CC(O)Cc1nnc([C@H]3CC[C@H](Oc4ccccn4)CC3)n1-2 (stereo partly drawn)
-9
CN1Cc2cc(Cl)ccc2-n2c(nnc2C2CCN(c3ccccn3)CC2)C1
13

Could you now look at the following compound, please?
Q: # inhibition lookup, item Cc1cccc2c1-n1c(nnc1[C@H]1CC[C@H](Oc3ccccn3)CC1)C[C@@H](O)C2 (atropisomer aR)
A: -6
